test system: M1 macrophages; test: Differentiation analysis, cell viability of M1 macrophages; type: cell-based, human; conditions: Table 4
value.kind: change in M1 population of macrophages compared with control

- chemical.smiles: "COC1=CC(=O)[C@@]2(c3cc(=O)c4ccc(O)cc4o3)[C@H](CC=C(C)[C@@H]2C[C@]2(C)[C@@H](C(=O)O)CC=C3[C@H]2CCCC3(C)C)C1=O"
  assay.target: "M1 macrophages"
  result: "decrease"
- chemical.smiles: "COC1=CC(=O)[C@@]2(c3cc(=O)c4ccc(OC)cc4o3)[C@H](C[C@]3(C)[C@@H](C(=O)O)CC=C4[C@H]3CCCC4(C)C)C(C)=CC[C@H]2C1=O"
  assay.target: "M1 macrophages"
  result: "significant reduction"
- chemical.smiles: "COC1=CC(=O)[C@@]2(c3cc(=O)c4c(O)cc(O)cc4o3)[C@H](C[C@]3(C)[C@@H](C(=O)O)CC=C4[C@H]3CCCC4(C)C)C(C)=CC[C@H]2C1=O"
  assay.target: "M1 macrophages"
  result: "decrease"
- chemical.smiles: "COC1=CC(=O)[C@@]2(c3cc(=O)c4c(O)cc(OC)cc4o3)[C@H](C[C@]3(C)[C@@H](C(=O)O)CC=C4[C@H]3CCCC4(C)C)C(C)=CC[C@H]2C1=O"
  assay.target: "M1 macrophages"
  result: "significant reduction"

---

Test system: M1 macrophages
Assay: Cell marker expression on M1 macrophages, flow cytometry
Assay type: cell-based, human
Details: control 99.83%
Procedure: M1 differentiation of freshly isolated CD14^+ cells was induced by the addition of lipopolysaccharide (LPS), while M2 differentiation of freshly isolated CD14^+ cells was induced by the addition of IL-4. Then, the present compounds (e.g., Mib-5, 6, 7, 8, 9, or 10) were added at the indicated dosages. 6 days later, the population of the differentiated macrophages were then determined by cell viability analysis. […]

- molecule: "COC1=CC(=O)[C@@]2(c3cc(=O)c4c(O)cc(OC)cc4o3)[C@H](C[C@]3(C)[C@@H](C(=O)O)CC=C4[C@H]3CCCC4(C)C)C(C)=CC[C@H]2C1=O [Mib-6]"
  assay.target: "M1 macrophages"
  CD14 expression on M1 macrophages (%): 86.43
- molecule: "COC1=CC(=O)[C@@]2(c3cc(=O)c4c(O)cc(O)cc4o3)[C@H](CC=C(C)[C@@H]2C[C@]2(C)[C@@H](C(=O)O)CC=C3[C@H]2CCCC3(C)C)C1=O [Mib-8]"
  assay.target: "M1 macrophages"
  CD14 expression on M1 macrophages (%): 99.73
- molecule: "COC1=CC(=O)[C@@]2(c3cc(=O)c4c(O)cc(O)cc4o3)[C@H](C[C@]3(C)[C@@H](C(=O)O)CC=C4[C@H]3CCCC4(C)C)C(C)=CC[C@H]2C1=O [Mib-7]"
  assay.target: "M1 macrophages"
  CD14 expression on M1 macrophages (%): 98.66
- molecule: "COC1=CC(=O)[C@@]2(c3cc(=O)c4ccc(O)cc4o3)[C@H](CC=C(C)[C@@H]2C[C@]2(C)[C@@H](C(=O)O)CC=C3[C@H]2CCCC3(C)C)C1=O [Mib-10]"
  assay.target: "M1 macrophages"
  CD14 expression on M1 macrophages (%): 99.10
- molecule: "COC1=CC(=O)[C@@]2(c3cc(=O)c4ccc(OC)cc4o3)[C@H](C[C@]3(C)[C@@H](C(=O)O)CC=C4[C@H]3CCCC4(C)C)C(C)=CC[C@H]2C1=O [Mib-5]"
  assay.target: "M1 macrophages"
  CD14 expression on M1 macrophages (%): 97.03
